As shown below, each of these variants has a reported normalized RNA/DNA level without ligand (log10) value.
B1: library; a variant is named by its letters at N, in order (parent)
chain: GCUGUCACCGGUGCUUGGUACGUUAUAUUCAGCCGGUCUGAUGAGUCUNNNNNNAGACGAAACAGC

Variants of: B1
Experiment: normalized RNA/DNA level without ligand (relative to sTRSVctl = 100) (log10 (% of sTRSVctl)); HEK293T overexpressing SLC46A1; higher = less ribozyme self-cleavage, higher mRNA level
Conditions: without (6R,S)-folinic acid; ligand present: no
// return just the number, without any unit appended

# count of solved cases: 3
INSERT INTO assay_data (residues, reportedmeasurement) VALUES
  ('GCUGUCACCGGUGCUUGGUACGUUAUAUUCAGCCGGUCUGAUGAGUCUCCUGCAAGACGAAACAGC [CCUGCA]', 2.05),
  ('GCUGUCACCGGUGCUUGGUACGUUAUAUUCAGCCGGUCUGAUGAGUCUAUGAUAAGACGAAACAGC [AUGAUA]', 1.95),
  ('GCUGUCACCGGUGCUUGGUACGUUAUAUUCAGCCGGUCUGAUGAGUCUUUUUGCAGACGAAACAGC [UUUUGC]', 1.96);

[ask] Fill in the blank: the reported normalized RNA/DNA level without ligand (log10) of GCUGUCACCGGUGCUUGGUACGUUAUAUUCAGCCGGUCUGAUGAGUCUCAAUCGAGACGAAACAGC [CAAUCG] is ____.
[reply] 2.02

[ask] Moving on to GCUGUCACCGGUGCUUGGUACGUUAUAUUCAGCCGGUCUGAUGAGUCUGGAGUCAGACGAAACAGC [GGAGUC]
[reply] 2.02
